Origin of values: the emibetuzumab library of Makowski et al. (2022)

B1: VH:VL chains; a variant is named by its letters at X, in order (parent)
chain 1: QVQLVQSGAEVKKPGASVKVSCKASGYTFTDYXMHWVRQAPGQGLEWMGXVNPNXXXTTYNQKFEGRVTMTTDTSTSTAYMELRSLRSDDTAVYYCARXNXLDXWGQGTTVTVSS
chain 2: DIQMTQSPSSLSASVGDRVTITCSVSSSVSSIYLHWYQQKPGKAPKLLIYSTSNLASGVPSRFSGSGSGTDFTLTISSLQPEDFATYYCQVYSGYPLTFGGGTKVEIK

- Variants of: B1
- method.description: yeast display scFab, FACS + sequencing
result.type: non-specific binding call

Some solved cases for reference:
1) YARRGDGA : binds
2) YKARGSSS : binds
3) DETGNVWF : no binding
4) FRERGYGA : binds

Below is a list of variants. For each, state its recorded non-specific binding call.
1. YKGKGSAA
2. YAGETFGA
3. SKGRGAGS
4. YTREGAVA
5. DAARGDSA

Outgoing:
binds
binds
binds
no binding
no binding

Below is a list of variants. For each, state its recorded non-specific binding call.
1. DTTGSDVF
2. DRAGDDVF
3. SKERGDAA
4. DAKEGDVV
5. FRRTDFVA
6. YRGGGSAA
7. YRKGSSGV
8. VEKEGDGV

Outgoing:
no binding
no binding
no binding
no binding
binds
binds
binds
no binding

Below is a list of variants. For each, state its recorded non-specific binding call.
1. YRTRSAAV
2. DAGKGAVY
3. SEGRGAWY
4. SAEEDDVY
5. DRGGDDVD
6. DATGGDVY

Outgoing:
1: binds; 2: no binding; 3: no binding; 4: no binding; 5: no binding; 6: no binding

Below is a list of variants. For each, state its recorded non-specific binding call.
1. YRGGTSVD
2. VKAGDSGA
3. AETTDSWV
4. YRRGSSGS
5. YEKGGDGV
6. AKGGAAVY

Outgoing:
1. binds
2. no binding
3. no binding
4. binds
5. no binding
6. no binding
